Biological target: gH/gL of HCMV strain AD169 (on virus AD169 and on reporter virus AD169R) (human cytomegalovirus (strain AD169), UniProt P12824 24-743; P16832 31-278)
Experiment: cell-based or functional assay
OBSERVABLE: IC50(THP-1) AD169R, virus neutralization (µg/mL)
Report the value in µg/mL with no unit label.

// worked examples, IC50(THP-1) AD169R, virus neutralization included
13G1 (antibody, V domains shown, also called 13G1 (ms); anti-gH mAb 13G1) VH: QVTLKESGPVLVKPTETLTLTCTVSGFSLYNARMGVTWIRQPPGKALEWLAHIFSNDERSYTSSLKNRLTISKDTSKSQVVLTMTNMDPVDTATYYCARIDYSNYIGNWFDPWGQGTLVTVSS VL: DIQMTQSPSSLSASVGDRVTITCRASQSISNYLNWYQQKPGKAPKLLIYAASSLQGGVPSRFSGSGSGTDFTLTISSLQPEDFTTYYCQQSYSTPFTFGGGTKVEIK
0.03
14E1 (antibody, V domains shown, also called 14E1 (ms)) VH: QVQLVQSGAEVKKPGASVKVSCKASGYTFTSYSISWVRQAPGQGLEWMGWINTYNGNTNYAQRVQARVTMTTDTSTSTAYMELRSLRSDDTAVYYCARDHGFFFDYWGQGNLVTVSS VL: DIQLTQSPSFLSASVGDRVTITCWASQGISSYLAWYQQKPGKAPKLLIYAASTLQSGVPSRFSGSGSGTEFTLTISSLQPEDFATYYCQQLNSYPYTFGQGTQLEIK
0.02
9A12 (antibody, V domains shown, also called 9A12 (ms); anti-gH mAb 9A12) VH: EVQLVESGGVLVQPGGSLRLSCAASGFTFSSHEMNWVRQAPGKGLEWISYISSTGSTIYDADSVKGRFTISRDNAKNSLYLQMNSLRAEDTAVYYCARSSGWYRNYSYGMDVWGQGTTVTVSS VL: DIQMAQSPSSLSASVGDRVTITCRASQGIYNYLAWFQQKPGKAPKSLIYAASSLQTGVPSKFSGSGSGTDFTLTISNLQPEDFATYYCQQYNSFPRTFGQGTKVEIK
0.08

Note: attention shifts to another entry.
Q. Determine from records and report IC50(THP-1) AD169R, virus neutralization for 15G11 (antibody, V domains shown, also called 15G11 (ms); anti-gH mAb 15G11) VH: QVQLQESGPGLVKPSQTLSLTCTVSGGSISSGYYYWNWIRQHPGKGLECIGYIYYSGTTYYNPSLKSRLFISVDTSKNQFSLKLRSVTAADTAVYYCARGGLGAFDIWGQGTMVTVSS VL: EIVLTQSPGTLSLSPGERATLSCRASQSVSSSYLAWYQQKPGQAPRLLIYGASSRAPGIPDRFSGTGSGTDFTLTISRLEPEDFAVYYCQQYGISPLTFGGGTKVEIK
A. 0.01

Data provenance: patent US20250129140A1
